assay: LC-MS/MS measurement of dabrafenib and metabolites in patient plasma at steady state; assay type: in vivo, human; conditions: Fig. 3, single patient sample; semi-quantification based on the calibration curve of dabrafenib
Values of Plasma concentration in typical patient sample greater than or equal to 300 ng/mL map to label 1; values below map to label 0.

Input: Is it the case that `C=C(C)c1nc(-c2cccc(NS(=O)(=O)c3c(F)cccc3F)c2F)c(-c2ccnc(N)n2)s1` has Plasma concentration in typical patient sample reaching or exceeding 300 ng/mL?
Output: label 1

* * *

assay: LC-MS/MS measurement of dabrafenib and metabolites in patient plasma at steady state; assay type: in vivo, human; conditions: patient plasma, steady state, dabrafenib 150 mg BID orally
Property Measured: Diff (difference between the highest and lowest concentrations)

Input: // query Diff (difference between the highest and lowest concentrations) value for entry CC(C)(CO)c1nc(-c2cccc(NS(=O)(=O)c3c(F)cccc3F)c2F)c(-c2ccnc(N)n2)s1 [Hydroxy-Dab, hydroxy-dabrafenib]
Output: 15-fold

Input: // query Diff (difference between the highest and lowest concentrations) value for entry C=C(COC1OC(C(=O)O)C(O)C(O)C1O)c1nc(-c2cccc(NS(=O)(=O)c3c(F)cccc3F)c2F)c(-c2ccnc(N)n2)s1 (stereo not drawn)
Output: 3-fold

Input: // query Diff (difference between the highest and lowest concentrations) value for entry `C=C(C)c1nc(-c2cccc(NS(=O)(=O)c3c(F)cccc3F)c2F)c(-c2ccnc(N)n2)s1`
Output: 4-fold

* * *

assay: LC-MS/MS measurement of dabrafenib and metabolites in patient plasma at steady state; assay type: in vivo, human; settings: patient plasma, steady state, dabrafenib 150 mg BID orally, 14-17 h after last dose; semi-quantification based on the calibration curve of dabrafenib
Marks after values point to notes of the source that are not given here.
Property Measured: Median C (plasma concentration)

CC(C)(C(=O)O)c1nc(-c2cccc(NS(=O)(=O)c3c(F)cccc3F)c2F)c(-c2ccnc(N)n2)s1	450^a ng/ml
C=C(COC1OC(C(=O)O)C(O)C(O)C1O)c1nc(-c2cccc(NS(=O)(=O)c3c(F)cccc3F)c2F)c(-c2ccnc(N)n2)s1 (centres unmarked)	38^a ng/ml
CC(C)c1nc(-c2cccc(NS(=O)(=O)c3c(F)cccc3F)c2F)c(-c2ccnc(N)n2)s1	400^a ng/ml
CC(C)(CO)c1nc(-c2cccc(NS(=O)(=O)c3c(F)cccc3F)c2F)c(-c2ccnc(N)n2)s1 [Hydroxy-Dab, hydroxy-dabrafenib]	74^a ng/ml

Please look at the following molecule next.
Input: // query Median C (plasma concentration) value for entry `C=C(C)c1nc(-c2cccc(NS(=O)(=O)c3c(F)cccc3F)c2F)c(-c2ccnc(N)n2)s1`
Output: 400^a ng/ml

* * *

assay: LC-MS/MS measurement of dabrafenib and metabolites in patient plasma at steady state; assay type: in vivo, human; details: Fig. 3, single patient sample; semi-quantification based on the calibration curve of dabrafenib
Property Measured: Plasma concentration in typical patient sample
A complete answer gives the number and then names the unit.

Use the examples below as a reference point.
C=C(COC1OC(C(=O)O)C(O)C(O)C1O)c1nc(-c2cccc(NS(=O)(=O)c3c(F)cccc3F)c2F)c(-c2ccnc(N)n2)s1 (stereo not shown)	32 ng/mL
CC(C)(CO)c1nc(-c2cccc(NS(=O)(=O)c3c(F)cccc3F)c2F)c(-c2ccnc(N)n2)s1 [Hydroxy-Dab, hydroxy-dabrafenib]	280 ng/mL
CC(C)c1nc(-c2cccc(NS(=O)(=O)c3c(F)cccc3F)c2F)c(-c2ccnc(N)n2)s1	660 ng/mL

Input: // query Plasma concentration in typical patient sample value for entry `CC(C)(C(=O)O)c1nc(-c2cccc(NS(=O)(=O)c3c(F)cccc3F)c2F)c(-c2ccnc(N)n2)s1`
Output: 400 ng/mL

meta.source: paper PMC5427163
